molecular target: UniProt:Q6ZQW0; assay: Inhibition of IDO2 (unknown origin) at 100 uM using L-tryptophan as substrate by spectrophotometric method relative to control
Sequence (Q6ZQW0 whole entry): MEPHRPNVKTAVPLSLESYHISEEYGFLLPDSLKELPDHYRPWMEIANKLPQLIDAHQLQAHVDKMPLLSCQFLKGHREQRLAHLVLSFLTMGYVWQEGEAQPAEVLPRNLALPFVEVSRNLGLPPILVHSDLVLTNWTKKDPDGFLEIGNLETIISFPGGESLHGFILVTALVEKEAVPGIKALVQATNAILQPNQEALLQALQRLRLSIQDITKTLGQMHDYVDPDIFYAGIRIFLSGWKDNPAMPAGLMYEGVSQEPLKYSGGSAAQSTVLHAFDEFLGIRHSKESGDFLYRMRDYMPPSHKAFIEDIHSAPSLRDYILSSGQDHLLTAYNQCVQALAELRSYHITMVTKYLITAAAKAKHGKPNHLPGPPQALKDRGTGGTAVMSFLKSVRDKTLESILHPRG
Assay Metric: inhibition

Answered cases to consult:
compound=NOC(c1ccc(F)cc1)c1ccc(F)cc1 reported_value=73.6%
compound="NOC(CCc1cccc(Cl)c1)c1ccccc1 (stereo not drawn)" reported_value=78.1%
compound="NOC(c1ccccc1)c1ccc(Cl)c(Cl)c1 (stereo not drawn)" reported_value="> 95%"
compound="NOC(c1ccccc1)c1ccccc1F (stereo not drawn)" reported_value=77.8%
compound="NOC(c1ccccc1)c1cccc(Cl)c1Cl (stereo not drawn)" reported_value=72.4%

For each of the compounds below, state inhibition.
1. NOC(c1ccccc1)c1ccc(F)cc1F (stereo not drawn)
2. NOC(c1ccccc1)c1ccccc1Cl (stereo not drawn)
3. NOC(c1ccccc1)c1cccc(Br)c1 (stereo not drawn)

Response:
46%
> 95%
77.6%

----------
Record form. Attribute: log10 of IC50. Fill in for each entry.
target: Indoleamine 2,3-dioxygenase 2 (Mus musculus, UniProt Q8R0V5); experiment: Inhibition of mouse IDO2 expressed in human T-REx cells using L-tryptophan as substrate after 20 hrs
Sequence (Q8R0V5 whole entry): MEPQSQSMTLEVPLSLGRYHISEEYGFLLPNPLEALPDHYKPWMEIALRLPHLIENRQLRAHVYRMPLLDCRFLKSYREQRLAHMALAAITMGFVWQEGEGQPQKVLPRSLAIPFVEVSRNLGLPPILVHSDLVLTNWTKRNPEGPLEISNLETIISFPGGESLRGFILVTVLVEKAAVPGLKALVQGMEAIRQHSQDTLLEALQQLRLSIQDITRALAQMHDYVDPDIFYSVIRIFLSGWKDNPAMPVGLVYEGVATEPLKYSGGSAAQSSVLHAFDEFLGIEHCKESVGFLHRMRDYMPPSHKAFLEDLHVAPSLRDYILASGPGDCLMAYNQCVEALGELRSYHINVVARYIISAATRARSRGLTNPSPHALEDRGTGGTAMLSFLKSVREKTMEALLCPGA
Could you please treat all values as log10 of IC50 in µM?

Answered cases to consult:
compound="COc1ccccc1C(ON)c1ccccc1 (configuration not stated)" system_tested="Indoleamine 2,3-dioxygenase 2 (Mus musculus, UniProt Q8R0V5)" assay_metric="log10 of IC50" reported_value=1.22
compound="NOC(CCc1cccc(Cl)c1)c1ccccc1 (configuration not stated)" system_tested="Indoleamine 2,3-dioxygenase 2 (Mus musculus, UniProt Q8R0V5)" assay_metric="log10 of IC50" reported_value=1.31
compound="NOC(c1ccccc1)c1cc(C(F)(F)F)cc(C(F)(F)F)c1 (configuration not stated)" system_tested="Indoleamine 2,3-dioxygenase 2 (Mus musculus, UniProt Q8R0V5)" assay_metric="log10 of IC50" reported_value=1.16
compound="NOC(c1ccccc1)c1ccc(F)cc1F (configuration not stated)" system_tested="Indoleamine 2,3-dioxygenase 2 (Mus musculus, UniProt Q8R0V5)" assay_metric="log10 of IC50" reported_value=1.28

For each of the compounds below, state log10 of IC50.
1. NOC(c1ccccc1)c1cccc(C(F)(F)F)c1F (configuration not stated)
2. NOC(c1ccccc1)c1cccc(C(F)(F)F)c1 (configuration not stated)
3. NOC(c1ccccc1)c1ccc(Cl)cc1 (configuration not stated)
4. NOC(c1ccccc1)c1cc(C(F)(F)F)ccc1F (configuration not stated)
5. NS(=O)(=O)NCCNc1nonc1C(=NO)Nc1ccc(F)c(Br)c1
6. NOC(c1ccccc1)C1CCCCC1 (configuration not stated)

Response:
1. 1.23
2. 1.39
3. 1.44
4. 0.95
5. 1.28
6. 1.60

----------
biological target: Tryptophan 2,3-dioxygenase (Homo sapiens, UniProt P48775); assay: Inhibition of human TDO expressed in human T-REx cells using L-tryptophan as substrate after 20 hrs; format: cell-based
Sequence (P48775 whole entry): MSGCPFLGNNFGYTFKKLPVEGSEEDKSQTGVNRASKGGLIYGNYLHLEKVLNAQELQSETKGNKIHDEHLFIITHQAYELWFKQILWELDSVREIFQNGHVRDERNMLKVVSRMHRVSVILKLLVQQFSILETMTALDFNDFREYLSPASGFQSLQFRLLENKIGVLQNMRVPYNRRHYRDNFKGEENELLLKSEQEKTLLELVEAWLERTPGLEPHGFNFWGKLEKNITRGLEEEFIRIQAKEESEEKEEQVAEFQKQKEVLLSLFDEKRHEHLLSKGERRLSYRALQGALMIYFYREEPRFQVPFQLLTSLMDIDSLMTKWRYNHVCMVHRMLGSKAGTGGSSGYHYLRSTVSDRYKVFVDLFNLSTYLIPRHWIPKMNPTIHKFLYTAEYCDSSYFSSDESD
Assay Metric: IC50 (µM)
One number for each entry, in µM.

Answered cases to consult:
compound="NOC(c1ccccc1)c1ccccc1Cl (stereo not drawn)" reported_value=21.8
compound="NOC(c1ccccc1)c1cc(Cl)cc(Cl)c1 (stereo not drawn)" reported_value=5.7

We next turn to a different compound, shown below.
Query: GET /values?readout=IC50&item= NOC(c1ccccc1)c1cccc(Cl)c1Cl (stereo not drawn)
Response: 4.54
